TARGET_OF_ASSAY: hNR2B (Homo sapiens, UniProt Q05586+Q13224)
Sequence (Q13224 27-1484, other chains not shown): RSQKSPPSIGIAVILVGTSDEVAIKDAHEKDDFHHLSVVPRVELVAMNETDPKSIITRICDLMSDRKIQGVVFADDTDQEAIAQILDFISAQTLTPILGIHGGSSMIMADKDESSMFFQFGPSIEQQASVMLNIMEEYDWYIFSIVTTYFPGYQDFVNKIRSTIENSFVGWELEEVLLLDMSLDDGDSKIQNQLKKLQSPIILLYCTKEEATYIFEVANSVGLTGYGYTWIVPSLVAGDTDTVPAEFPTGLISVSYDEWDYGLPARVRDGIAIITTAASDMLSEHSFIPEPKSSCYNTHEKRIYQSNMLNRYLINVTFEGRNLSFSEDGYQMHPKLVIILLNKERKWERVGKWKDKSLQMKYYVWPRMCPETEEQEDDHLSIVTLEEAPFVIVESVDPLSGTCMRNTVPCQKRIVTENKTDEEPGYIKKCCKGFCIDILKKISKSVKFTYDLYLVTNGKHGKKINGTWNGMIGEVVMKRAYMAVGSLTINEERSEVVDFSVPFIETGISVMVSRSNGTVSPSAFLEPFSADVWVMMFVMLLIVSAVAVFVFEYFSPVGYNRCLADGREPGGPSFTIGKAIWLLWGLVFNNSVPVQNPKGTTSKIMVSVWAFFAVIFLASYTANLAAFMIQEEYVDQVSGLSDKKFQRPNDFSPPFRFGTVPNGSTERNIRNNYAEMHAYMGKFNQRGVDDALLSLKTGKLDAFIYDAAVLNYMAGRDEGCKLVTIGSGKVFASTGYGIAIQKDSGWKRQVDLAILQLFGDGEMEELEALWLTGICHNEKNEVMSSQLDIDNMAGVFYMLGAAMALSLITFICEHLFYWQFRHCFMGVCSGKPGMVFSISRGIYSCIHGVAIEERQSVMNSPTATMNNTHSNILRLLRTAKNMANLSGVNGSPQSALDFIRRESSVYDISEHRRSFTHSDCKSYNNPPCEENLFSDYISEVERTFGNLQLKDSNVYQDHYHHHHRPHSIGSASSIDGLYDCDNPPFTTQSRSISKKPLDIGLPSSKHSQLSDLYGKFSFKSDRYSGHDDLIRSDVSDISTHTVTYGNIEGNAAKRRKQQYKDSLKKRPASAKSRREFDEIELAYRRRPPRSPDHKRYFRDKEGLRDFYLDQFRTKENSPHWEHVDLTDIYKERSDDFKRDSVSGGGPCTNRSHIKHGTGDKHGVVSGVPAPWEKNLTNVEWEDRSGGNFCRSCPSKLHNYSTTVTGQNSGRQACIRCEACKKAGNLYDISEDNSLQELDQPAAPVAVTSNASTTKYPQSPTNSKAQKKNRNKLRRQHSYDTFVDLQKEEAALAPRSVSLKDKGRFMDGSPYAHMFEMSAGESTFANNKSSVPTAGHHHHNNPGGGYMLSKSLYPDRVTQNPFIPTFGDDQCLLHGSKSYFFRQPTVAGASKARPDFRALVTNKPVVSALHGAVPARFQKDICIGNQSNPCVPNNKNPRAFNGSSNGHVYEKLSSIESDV
RUN_DESCRIPTION: Electrophysiology NMDA receptor experiments: two electrode voltage-clamp in Xenopus laevis oocytes expressing GluN1/GluN2 subunits
Format: cell-based
MEASUREMENT_PARAMETERS: oocytes voltage clamped at −40 mV; 50 μM glutamate, 30 μM glycine; read-out: Rating (hNR2B IC50)
pIC50: −log10 of the molar value.
MEASUREMENT_LABEL: pIC50

compound=COc1ccc(Nc2ncc(COc3ccc4[nH]c(=O)ccc4c3)cn2)cc1F recorded_result="> 6.70"
compound=O=c1ccc2cc(OCc3ccc(NCc4ccc(F)c(F)c4)nc3)ccc2[nH]1 recorded_result="6.00 to 6.70"
compound=O=c1[nH]c2ccc(OCc3cnc(Nc4ccc(OC(F)(F)F)cc4)nc3)cc2o1 recorded_result="> 6.70"
compound=Cc1cc(Nc2ncc(COc3ccc4[nH]c(=O)ccc4c3)cn2)ccc1OC(F)F recorded_result="> 6.70"
compound=FC(F)Oc1ccc(Nc2ncc(CCc3cccc4[nH]ncc34)cn2)cc1 recorded_result="5.00 to 6.00"
compound="FC(F)Oc1ccc(Nc2ncc(C3CC3c3cccc4[nH]ncc34)cn2)cc1 (stereo not drawn)" recorded_result="< 5.00"

Report pIC50 for each item below.
1. Fc1cc(Nc2ncc(COc3ccc(Nc4nccs4)cc3)cn2)ccc1OC(F)F
2. O=c1ccc2cc(CCc3cnc(Nc4ccc(OC(F)F)cc4)nc3)cnc2[nH]1
3. Cc1ccc(Nc2ncc(CCc3ccc4c(c3)COC(=O)N4)cn2)cc1F

OUT:
["> 6.70", "> 6.70", "> 6.70"]

---

Kindly state pIC50 for each of the entries shown.
TARGET_OF_ASSAY: hNR2B (Homo sapiens, UniProt Q05586+Q13224)
RUN_DESCRIPTION: Electrophysiology NMDA receptor experiments: two electrode voltage-clamp in Xenopus laevis oocytes expressing GluN1/GluN2 subunits
Type: cell-based
MEASUREMENT_PARAMETERS: oocytes voltage clamped at −40 mV; 50 μM glutamate, 30 μM glycine; read-out: Rating (hNR2B IC50)
pIC50: −log10 of the molar value.

In the examples that follow, each entry is paired with its recorded pIC50.
input_smiles=FC(F)Oc1ccc(Nc2ncc(COc3cnc4[nH]ncc4c3)cn2)cc1 measurement_label=pIC50 recorded_result="> 6.70"
input_smiles=FC(F)Oc1ccc(Nc2ncc(COc3ccc4[nH]ncc4c3)cn2)cc1Cl measurement_label=pIC50 recorded_result="> 6.70"
input_smiles=Cc1ccc(Nc2ncc(COc3ccc4[nH]c(=O)ccc4c3)cn2)cc1Cl measurement_label=pIC50 recorded_result="> 6.70"
input_smiles=O=c1ccc2cc(OCc3ccc(NCc4ccc(OC(F)F)cc4)nc3)ccc2[nH]1 measurement_label=pIC50 recorded_result="< 5.00"
input_smiles=CN(C)c1nc(Nc2ccc(OC(F)F)cc2)ncc1COc1ccc2[nH]c(=O)ccc2c1 measurement_label=pIC50 recorded_result="> 6.70"
input_smiles=O=C1Nc2ccc(CCc3cnc(Nc4ccc(OC(F)F)c(F)c4)nc3)cc2CO1 measurement_label=pIC50 recorded_result="> 6.70"
input_smiles=O=c1ccc2cc(OCc3ccc(NCc4ccc(F)cc4)nc3)ccc2[nH]1 measurement_label=pIC50 recorded_result="> 6.70"
input_smiles=O=c1ccc2cc(OCc3cnc(Nc4ccc(Cl)cc4)nc3C(F)(F)F)ccc2[nH]1 measurement_label=pIC50 recorded_result="> 6.70"

Report pIC50 for each item below.
1. CCc1ccc(Nc2ncc(CCc3ccc4[nH]ncc4c3)cn2)cc1Cl
2. Cc1cc(Nc2ncc(COc3cc4ccc(=O)[nH]c4cc3F)cn2)ccc1OC(F)F
3. N#Cc1n[nH]c2ccc(CCc3cnc(Nc4ccc(OC(F)F)cc4)nc3)cc12
4. FC(F)Oc1ccc(Nc2ncc(CCc3ccc4cn[nH]c4c3)cn2)cc1

OUT:
["5.00 to 6.00", "> 6.70", "< 5.00", "< 5.00"]

Report pIC50 for each item below.
1. O=c1ccc2cc(OCc3cnc(Nc4ccc(F)cc4)nc3)ccc2[nH]1
2. FC(F)Oc1ccc(Nc2ncc(COc3ccc4[nH]ncc4c3)cn2)cc1
3. CC1(C)OC(=O)Nc2ccc(CCc3cnc(Nc4ccc(OC(F)F)cc4)nc3)cc21
4. Cc1cc(Nc2ncc(CCc3cnc4[nH]ncc4c3)cn2)ccc1OC(F)F

OUT:
1: > 6.70; 2: > 6.70; 3: < 5.00; 4: > 6.70

Report pIC50 for each item below.
1. CCc1ccc(Nc2ncc(CCc3cnc4[nH]ncc4c3)cn2)cc1F
2. Cc1cc(Nc2ncc(COc3ccc4c(c3)COC(=O)N4)cn2)ccc1OC(F)F

OUT:
1. 6.00 to 6.70
2. > 6.70

---

TARGET_OF_ASSAY: hNR2B (Homo sapiens, UniProt Q05586+Q13224)
RUN_DESCRIPTION: Electrophysiology NMDA receptor experiments: two electrode voltage-clamp in Xenopus laevis oocytes expressing GluN1/GluN2 subunits
Assay type: cell-based
MEASUREMENT_PARAMETERS: oocytes voltage clamped at −40 mV; 50 μM glutamate, 30 μM glycine; read-out: Rating (hNR2B IC50)
pIC50: −log10 of the molar value.
Kindly state pIC50 for each of the entries shown.

In the examples that follow, each entry is paired with its recorded pIC50.
molecule=O=c1ccc2cc(OCc3cnc(Nc4ccc(OC(F)F)c(F)c4)nc3)ccc2[nH]1 recorded_result="> 6.70"
molecule=FC(F)Oc1ccc(Nc2ncc(COc3ccc4[nH]nnc4c3)cn2)cc1 recorded_result="> 6.70"
molecule=Cc1cc(Nc2ncc(COc3ccc4c(c3)CC(=O)N4)cn2)ccc1OC(F)F recorded_result="> 6.70"
molecule=Oc1ccc(CCc2cnc(Nc3ccc(OC(F)F)cc3)nc2)cc1 recorded_result="> 6.70"
molecule=O=c1ccc2cc(OCc3ccc(NCc4ccc(Cl)c(Cl)c4)nc3)ccc2[nH]1 recorded_result="5.00 to 6.00"
molecule=Cc1cc(Nc2ncc(CCc3ccc4c(c3)COC(=O)N4)cn2)ccc1OC(F)F recorded_result="> 6.70"

Report pIC50 for each item below.
1. CC1(C)OC(=O)Nc2ccc(CCc3cnc(Nc4ccc(OC(F)F)c(Cl)c4)nc3)cc21
2. Cc1cc(Nc2ncc(CCc3ccc4c(c3)C(C)(C)OC(=O)N4)cn2)ccc1OC(F)F
3. FC(F)(F)Oc1ccc(Nc2ncc(COc3ccc4[nH]ncc4c3Cl)cn2)cc1
4. CC(Cc1cnc(Nc2ccc(OC(F)F)cc2)nc1)c1ccc2[nH]c(=O)ccc2c1 (centres unmarked)
5. O=c1ccc2cc(OCc3cc(Nc4ccc(Cl)cc4)ncn3)ccc2[nH]1
6. COc1cc(Nc2ncc(COc3ccc4[nH]c(=O)ccc4c3)cn2)ccc1F
7. Cc1ccc(Nc2ncc(COc3ccc4[nH]c(=O)ccc4c3)cn2)cc1
8. Cc1cc(OCc2cnc(Nc3ccc(OC(F)(F)F)cc3)nc2)cc2cn[nH]c12

OUT:
6.00 to 6.70
5.00 to 6.00
> 6.70
> 6.70
> 6.70
5.00 to 6.00
> 6.70
> 6.70

Report pIC50 for each item below.
1. Cc1nc(Nc2ccc(OC(F)F)cc2)ncc1COc1ccc2[nH]c(=O)ccc2c1
2. CCc1ccc(Nc2ncc(COc3ccc4[nH]c(=O)ccc4c3)cn2)cc1F

OUT:
1. > 6.70
2. > 6.70

Report pIC50 for each item below.
1. O=c1ccc2cc(OCc3cnc(Nc4ccc(OC(F)(F)F)cc4)nc3)ccc2[nH]1
2. COc1ccc(Nc2ncc(CCc3ccc4[nH]c(=O)ccc4c3)cn2)cc1C
3. Cc1ccc(Nc2ncc(COc3ccc4[nH]c(=O)ccc4c3)cn2)cc1F
4. FC(F)Oc1ccc(Nc2ncc(CCc3cnc4[nH]ncc4c3)cn2)cc1

OUT:
["> 6.70", "> 6.70", "> 6.70", "> 6.70"]

Report pIC50 for each item below.
1. CS(=O)(=O)c1ccc(Nc2ncc(COc3ccc4[nH]c(=O)ccc4c3)cn2)cc1
2. O=c1ccc2cc(OCc3cnc(Nc4ccc(OC(F)F)c(Cl)c4)nc3)ccc2[nH]1
3. O=C1Nc2ccc(CCc3cnc(Nc4ccc(OC(F)F)cc4)nc3)cc2CO1
4. O=c1ccc2cc(OCc3ccc(NCc4cccc(Cl)c4)nc3)ccc2[nH]1
5. O=c1ccc2cc(OCc3cnc(NCc4ccc(Cl)cc4)nc3)ccc2[nH]1
6. O=c1ccc2cc(CCc3cnc(Nc4ccc(OC(F)(F)F)cc4)nc3)ccc2[nH]1

OUT:
1: > 6.70; 2: > 6.70; 3: > 6.70; 4: 5.00 to 6.00; 5: > 6.70; 6: > 6.70

Report pIC50 for each item below.
1. O=C1Nc2ccc(OCc3cnc(Nc4ccc(OC(F)F)c(Cl)c4)nc3)cc2CO1
2. CC(C)(C)c1ccc(Nc2ncc(COc3ccc4[nH]c(=O)ccc4c3)cn2)cc1

OUT:
["> 6.70", "> 6.70"]

Report pIC50 for each item below.
1. FC1(F)Oc2ccc(Nc3ncc(CCc4ccc5[nH]ncc5c4)cn3)cc2O1
2. O=c1ccc2cc(OCc3cccc(Nc4ccc(Cl)cc4)n3)ccc2[nH]1
3. O=c1ccc2cc(OCc3cnc(Nc4ccc(F)c(Cl)c4)nc3)ccc2[nH]1
4. O=C1Nc2ccc(OCc3cnc(Nc4ccc(OC(F)F)cc4)nc3)cc2CO1
5. O=c1[nH]c2ccc(OCc3cnc(Nc4ccc(OC(F)(F)F)cc4)nc3)cc2s1
6. FC(F)Oc1ccc(Nc2ncc(CCCNc3ncnc4[nH]ncc34)cn2)cc1
7. FC(F)Oc1ccc(Nc2ncc(COc3ccc(Nc4nccs4)cc3)cn2)cc1Cl

OUT:
["5.00 to 6.00", "> 6.70", "6.00 to 6.70", "> 6.70", "> 6.70", "< 5.00", "> 6.70"]
